Parameter pIC50: see the listing below.
# system_name: binding of recombinant macrophage-tropic strain JR-FL gp120 to immobilized recombinant CD4 (Homo sapiens, UniProt P01730)
# Construct: human CD4 (comprised of amino acids 1-371); made in house; host or cells: Sf9 insect cells, baculovirus vector pAcGP67
# test: gp120/CD4 binding assay (DELFIA competition assay, europium-labeled gp120, immobilized CD4)
# Parameters: species or system HIV (strain JR-FL) gp120; human CD4
# cond: gp120/CD4 binding assay; read-out: Activity (IC50 level in the gp120/CD4 binding assay)
pIC50: −log10 of the molar value.

# compound, pIC50
data = [
    ("O=C(O)C[C@@H]1CCCN1S(=O)(=O)c1cnc(N2CCC(CCCC3CCN(S(=O)(=O)c4cc(Br)c(Cl)s4)CC3)CC2)c(Br)c1", "5.00 to 6.00"),
    ("O=S(=O)(c1cnc(N2CCC(CCCC3CCN(S(=O)(=O)c4c(Cl)ccc5nonc45)CC3)CC2)c(Br)c1)N1CCCNCC1", "< 5.00"),
    ("O=C(NCCCCC(NS(=O)(=O)c1cnc(N2CCC(CCCC3CCN(S(=O)(=O)c4cc(Br)c(Cl)s4)CC3)CC2)c(Br)c1)C(=O)O)OCc1ccccc1Cl (centres unmarked)", "> 6.00"),
    ("O=C(O)[C@H](Cc1ccccc1)NS(=O)(=O)c1ccc(N2CCC(CCCC3CCN(S(=O)(=O)c4cc(Br)c(Cl)s4)CC3)CC2)c(Cl)c1", "5.00 to 6.00"),
    ("O=C(O)[C@H](Cc1ccccc1)NS(=O)(=O)c1cnc(N2CCC(CCCCCC3CCN(S(=O)(=O)c4cc(Br)c(Cl)s4)CC3)CC2)c(Br)c1", "> 6.00"),
    ("O=C(NO)[C@H]1CC[C@H](NS(=O)(=O)c2ccc(N3CCC(CCCC4CCN(S(=O)(=O)c5cc(Br)c(Cl)s5)CC4)CC3)c(Cl)c2)C1", "< 5.00"),
    ("O=C(O)CC1Cc2ccccc2CN1S(=O)(=O)c1cnc(N2CCC(CCCCC3CCN(S(=O)(=O)c4cc(Br)c(Cl)s4)CC3)CC2)c(Br)c1 (centres unmarked)", "> 6.00"),
    ("O=C(O)CN(CCc1ccc(F)cc1)S(=O)(=O)c1cnc(N2CCC(CCCC3CCN(S(=O)(=O)c4cc(Br)c(Cl)s4)CC3)CC2)c(Br)c1", "> 6.00"),
]
